Sourced from the kinase profiling compilation of Christmann-Franck et al. (2016)

# study target: PBK (human) (UniProt Q96KB5)
# Sequence (Q96KB5 whole entry, looked up): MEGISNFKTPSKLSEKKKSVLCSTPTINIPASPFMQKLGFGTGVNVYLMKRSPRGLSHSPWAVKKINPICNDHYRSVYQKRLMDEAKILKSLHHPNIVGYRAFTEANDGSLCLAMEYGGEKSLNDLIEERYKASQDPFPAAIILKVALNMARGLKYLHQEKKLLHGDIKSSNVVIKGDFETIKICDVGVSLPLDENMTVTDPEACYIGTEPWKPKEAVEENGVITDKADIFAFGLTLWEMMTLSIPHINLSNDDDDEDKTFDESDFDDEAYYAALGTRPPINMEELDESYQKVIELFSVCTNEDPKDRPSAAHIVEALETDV
# procedure details: radiometric filter-binding kinase assay, Kinase HotSpot
# condition set: compound 0.5 µM; ATP 10 µM
residual activity by entry:
reported property: residual activity (%)

Cc1cc(Nc2nc(-c3ccccc3)nc3ccccc23)n[nH]1    95.4
COc1cccc(-c2cc(=O)c3ccccc3o2)c1N    97.6
c1ccc(-c2cnc(Nc3ccc(OCCN4CCCC4)cc3)s2)cc1    108
Nc1ncnc2c1cnn2-c1ccccc1    92.4
COc1cc2c(cc1OC)-c1[nH]nc(Nc3cccc(F)c3)c1C2    86.8
N/C(=N\N=C/c1ccc(-c2cccc([N+](=O)[O-])c2)o1)N[N+](=O)[O-]    111
Cn1cc(/C=C2\C(=O)Nc3ccc(S(N)(=O)=O)cc32)c2ccccc21    99.6
COc1cc2c(Nc3ccc(Br)cc3F)ncnc2cc1OCC1CCN(C)CC1    98.9
CCc1nc(-c2ccc(OC)cc2)[nH]c1-c1ccncc1    104
CCCCc1c(-c2ccc(O)cc2)[nH]c2nccnc12    75.6
CCOc1cc2ncnc(Nc3cccc(Br)c3)c2cc1OCC    102
COc1cc2c(N3CCN(C(=O)Nc4ccc(OC(C)C)cc4)CC3)ncnc2cc1OCCCN1CCCCC1    98
N#Cc1c(NC(=O)c2cccc3ccccc23)sc2c1CCCC2    116
O=C1NC(=O)c2c1c1c3ccccc3[nH]c1c1[nH]c3cc(Br)ccc3c21    86.3
O=C(O)c1ccc2c3c1cccc3c(=O)n1c3ccccc3nc21    97.5
N#C/C(=C1/Nc2ccccc2S1)c1ccnc(NCCc2cccnc2)n1    99.7
O=C(c1ccccc1)c1ccc(N2CCOCC2)cc1O    114
COc1cc2ncnc(Nc3ccc(O)c(Br)c3)c2cc1OC    101
O=c1c2ccccc2[nH]c(=S)n1CCN1CCC(=C(c2ccc(F)cc2)c2ccc(F)cc2)CC1    107
O=c1cc(N2CCOCC2)oc2c(-c3ccccc3)cccc12    110
N#CCCc1ccc2c(c1)-c1[nH]c3ccc([N+](=O)[O-])cc3c1CC(=O)N2    95.4
O=c1c(-c2ccc(F)cc2)c(-c2ccncc2)[nH]n1-c1ccc(Cl)cc1    87.7
FC(F)(F)c1ccc(/C=C/c2nc(COc3ccc(CCCCn4ccnn4)cc3)co2)cc1    99.9
O=C1NC(=O)c2cc(Nc3ccc(F)cc3)c(Nc3ccc(F)cc3)cc21    88.4
O=S(=O)(NCCNC/C=C/c1ccc(Br)cc1)c1cccc2cnccc12    107
O=c1[nH]c2ccccc2n1C1CCN(Cc2ccc(-c3nc4cc5[nH]cnc5cc4nc3-c3ccccc3)cc2)CC1    103

----------
# study target: PRKX (human) (UniProt P51817)
# Sequence (P51817 whole entry, looked up): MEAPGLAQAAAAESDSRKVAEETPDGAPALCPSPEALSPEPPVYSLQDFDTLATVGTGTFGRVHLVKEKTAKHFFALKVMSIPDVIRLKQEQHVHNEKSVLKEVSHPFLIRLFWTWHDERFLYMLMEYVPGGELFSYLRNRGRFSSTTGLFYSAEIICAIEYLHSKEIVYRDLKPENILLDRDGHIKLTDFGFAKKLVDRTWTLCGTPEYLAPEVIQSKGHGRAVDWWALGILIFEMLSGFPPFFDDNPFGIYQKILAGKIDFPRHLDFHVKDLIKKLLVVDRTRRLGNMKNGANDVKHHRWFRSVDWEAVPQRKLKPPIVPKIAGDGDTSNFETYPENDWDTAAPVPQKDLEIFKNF
# procedure details: radiometric filter-binding kinase assay, Kinase HotSpot
# condition set: compound 0.5 µM; ATP 10 µM
residual activity overview
reported property: residual activity (%)

CCOc1cc2ncnc(Nc3cccc(Br)c3)c2cc1OCC    99.8
c1ccc(-c2cnc(Nc3ccc(OCCN4CCCC4)cc3)s2)cc1    101
O=c1cc(N2CCOCC2)oc2c(-c3ccccc3)cccc12    101
O=C(O)c1ccc2c3c1cccc3c(=O)n1c3ccccc3nc21    93.7
COc1cc2c(Nc3ccc(Br)cc3F)ncnc2cc1OCC1CCN(C)CC1    105
Cc1cc(Nc2nc(-c3ccccc3)nc3ccccc23)n[nH]1    101

----------
// reported residual activity for each item listed
# study target: CSNK1D (human)
# procedure details: radiometric filter-binding kinase assay, Kinase HotSpot
# condition set: compound 0.5 µM; ATP 10 µM
reported property: residual activity (%)

O=C(c1ccccc1)c1ccc(N2CCOCC2)cc1O    100
N#C/C(=C1/Nc2ccccc2S1)c1ccnc(NCCc2cccnc2)n1    65
O=c1cc(N2CCOCC2)oc2c(-c3ccccc3)cccc12    100
O=c1c(-c2ccc(F)cc2)c(-c2ccncc2)[nH]n1-c1ccc(Cl)cc1    26.7
O=C(O)c1ccc2c3c1cccc3c(=O)n1c3ccccc3nc21    101
N#Cc1c(NC(=O)c2cccc3ccccc23)sc2c1CCCC2    106
N/C(=N\N=C/c1ccc(-c2cccc([N+](=O)[O-])c2)o1)N[N+](=O)[O-]    99.8
COc1cc2c(N3CCN(C(=O)Nc4ccc(OC(C)C)cc4)CC3)ncnc2cc1OCCCN1CCCCC1    90.9
O=c1c2ccccc2[nH]c(=S)n1CCN1CCC(=C(c2ccc(F)cc2)c2ccc(F)cc2)CC1    100
CCOc1cc2ncnc(Nc3cccc(Br)c3)c2cc1OCC    103
COc1cccc(-c2cc(=O)c3ccccc3o2)c1N    99.1
COc1cc2c(Nc3ccc(Br)cc3F)ncnc2cc1OCC1CCN(C)CC1    94.4
O=C1NC(=O)c2c1c1c3ccccc3[nH]c1c1[nH]c3cc(Br)ccc3c21    96.9
COc1cc2c(cc1OC)-c1[nH]nc(Nc3cccc(F)c3)c1C2    99.9
c1ccc(-c2cnc(Nc3ccc(OCCN4CCCC4)cc3)s2)cc1    95.8
Nc1ncnc2c1cnn2-c1ccccc1    79.5
N#CCCc1ccc2c(c1)-c1[nH]c3ccc([N+](=O)[O-])cc3c1CC(=O)N2    97.4
COc1cc2ncnc(Nc3ccc(O)c(Br)c3)c2cc1OC    89.7
CCCCc1c(-c2ccc(O)cc2)[nH]c2nccnc12    93.7
CCc1nc(-c2ccc(OC)cc2)[nH]c1-c1ccncc1    95.1
O=C1NC(=O)c2cc(Nc3ccc(F)cc3)c(Nc3ccc(F)cc3)cc21    109
FC(F)(F)c1ccc(/C=C/c2nc(COc3ccc(CCCCn4ccnn4)cc3)co2)cc1    96.6
Cn1cc(/C=C2\C(=O)Nc3ccc(S(N)(=O)=O)cc32)c2ccccc21    102
Cc1cc(Nc2nc(-c3ccccc3)nc3ccccc23)n[nH]1    96.7

----------
# study target: EPHA4 (human) (UniProt P54764)
# Sequence (P54764 whole entry, looked up): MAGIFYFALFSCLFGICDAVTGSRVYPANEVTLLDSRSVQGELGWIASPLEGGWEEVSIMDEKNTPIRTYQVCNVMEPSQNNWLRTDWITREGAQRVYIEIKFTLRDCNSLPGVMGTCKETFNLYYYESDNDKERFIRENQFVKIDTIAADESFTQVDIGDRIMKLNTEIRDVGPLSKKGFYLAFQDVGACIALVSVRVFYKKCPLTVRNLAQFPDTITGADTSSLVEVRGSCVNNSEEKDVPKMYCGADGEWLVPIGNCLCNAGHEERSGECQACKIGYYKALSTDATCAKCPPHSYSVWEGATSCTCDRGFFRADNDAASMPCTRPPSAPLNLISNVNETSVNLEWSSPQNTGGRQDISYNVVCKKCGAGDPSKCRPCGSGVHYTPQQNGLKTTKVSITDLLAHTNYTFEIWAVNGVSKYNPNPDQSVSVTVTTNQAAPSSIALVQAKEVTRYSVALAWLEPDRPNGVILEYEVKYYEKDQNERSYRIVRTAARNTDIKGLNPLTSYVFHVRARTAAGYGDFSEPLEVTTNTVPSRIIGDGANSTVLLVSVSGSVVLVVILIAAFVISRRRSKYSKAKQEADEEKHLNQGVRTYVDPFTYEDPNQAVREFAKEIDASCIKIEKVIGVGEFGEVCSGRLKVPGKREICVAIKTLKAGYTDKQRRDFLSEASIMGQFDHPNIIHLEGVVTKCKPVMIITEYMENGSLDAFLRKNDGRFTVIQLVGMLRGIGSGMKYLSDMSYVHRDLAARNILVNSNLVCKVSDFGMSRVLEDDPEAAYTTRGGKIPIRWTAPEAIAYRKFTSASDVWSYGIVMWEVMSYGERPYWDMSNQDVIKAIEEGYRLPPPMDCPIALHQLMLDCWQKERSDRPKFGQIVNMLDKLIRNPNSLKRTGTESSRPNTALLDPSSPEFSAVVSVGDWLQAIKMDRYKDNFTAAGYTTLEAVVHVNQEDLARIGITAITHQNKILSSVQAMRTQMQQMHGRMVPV
# procedure details: radiometric filter-binding kinase assay, Kinase HotSpot
# condition set: compound 0.5 µM; ATP 10 µM
reported property: residual activity

O=c1c2ccccc2[nH]c(=S)n1CCN1CCC(=C(c2ccc(F)cc2)c2ccc(F)cc2)CC1    99.4%
c1ccc(-c2cnc(Nc3ccc(OCCN4CCCC4)cc3)s2)cc1    101%
O=S(=O)(NCCNC/C=C/c1ccc(Br)cc1)c1cccc2cnccc12    86.8%
N#CCCc1ccc2c(c1)-c1[nH]c3ccc([N+](=O)[O-])cc3c1CC(=O)N2    85.2%
CCCCc1c(-c2ccc(O)cc2)[nH]c2nccnc12    87.5%
Nc1ncnc2c1cnn2-c1ccccc1    96.2%
Cc1cc(Nc2nc(-c3ccccc3)nc3ccccc23)n[nH]1    70.7%
FC(F)(F)c1ccc(/C=C/c2nc(COc3ccc(CCCCn4ccnn4)cc3)co2)cc1    98.8%
N#Cc1c(NC(=O)c2cccc3ccccc23)sc2c1CCCC2    99%
Cn1cc(/C=C2\C(=O)Nc3ccc(S(N)(=O)=O)cc32)c2ccccc21    80.5%
COc1cccc(-c2cc(=O)c3ccccc3o2)c1N    98%
O=C(O)c1ccc2c3c1cccc3c(=O)n1c3ccccc3nc21    103%
COc1cc2ncnc(Nc3ccc(O)c(Br)c3)c2cc1OC    83.7%
O=c1c(-c2ccc(F)cc2)c(-c2ccncc2)[nH]n1-c1ccc(Cl)cc1    93.5%

----------
Reported residual activity by item:
# study target: CAMK4 (human) (UniProt Q16566)
# Sequence (Q16566 whole entry, looked up): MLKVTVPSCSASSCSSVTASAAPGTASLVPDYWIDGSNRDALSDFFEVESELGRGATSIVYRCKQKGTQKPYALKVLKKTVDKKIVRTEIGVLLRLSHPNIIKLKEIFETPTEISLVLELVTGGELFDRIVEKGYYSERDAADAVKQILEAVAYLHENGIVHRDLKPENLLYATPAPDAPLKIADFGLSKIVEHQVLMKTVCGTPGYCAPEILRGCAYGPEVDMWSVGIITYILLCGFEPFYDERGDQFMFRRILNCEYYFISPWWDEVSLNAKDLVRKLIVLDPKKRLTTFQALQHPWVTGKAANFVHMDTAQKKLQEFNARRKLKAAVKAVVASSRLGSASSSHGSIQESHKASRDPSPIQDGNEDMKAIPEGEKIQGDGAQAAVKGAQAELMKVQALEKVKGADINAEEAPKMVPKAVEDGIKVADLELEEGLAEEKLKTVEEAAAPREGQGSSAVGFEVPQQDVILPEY
# procedure details: radiometric filter-binding kinase assay, Kinase HotSpot
# condition set: compound 0.5 µM; ATP 10 µM
reported property: residual activity (%)

N/C(=N\N=C/c1ccc(-c2cccc([N+](=O)[O-])c2)o1)N[N+](=O)[O-]    95.2
O=C(c1ccccc1)c1ccc(N2CCOCC2)cc1O    94.7
O=c1c(-c2ccc(F)cc2)c(-c2ccncc2)[nH]n1-c1ccc(Cl)cc1    104
O=c1cc(N2CCOCC2)oc2c(-c3ccccc3)cccc12    104
O=S(=O)(NCCNC/C=C/c1ccc(Br)cc1)c1cccc2cnccc12    95.2
COc1cc2c(N3CCN(C(=O)Nc4ccc(OC(C)C)cc4)CC3)ncnc2cc1OCCCN1CCCCC1    99.3
c1ccc(-c2cnc(Nc3ccc(OCCN4CCCC4)cc3)s2)cc1    97.2
N#Cc1c(NC(=O)c2cccc3ccccc23)sc2c1CCCC2    108
COc1cc2ncnc(Nc3ccc(O)c(Br)c3)c2cc1OC    95.6
O=c1[nH]c2ccccc2n1C1CCN(Cc2ccc(-c3nc4cc5[nH]cnc5cc4nc3-c3ccccc3)cc2)CC1    101
FC(F)(F)c1ccc(/C=C/c2nc(COc3ccc(CCCCn4ccnn4)cc3)co2)cc1    97.7
N#C/C(=C1/Nc2ccccc2S1)c1ccnc(NCCc2cccnc2)n1    99
O=c1c2ccccc2[nH]c(=S)n1CCN1CCC(=C(c2ccc(F)cc2)c2ccc(F)cc2)CC1    94.7
COc1cccc(-c2cc(=O)c3ccccc3o2)c1N    104
CCc1nc(-c2ccc(OC)cc2)[nH]c1-c1ccncc1    97.5
O=C(O)c1ccc2c3c1cccc3c(=O)n1c3ccccc3nc21    101
O=C1NC(=O)c2cc(Nc3ccc(F)cc3)c(Nc3ccc(F)cc3)cc21    98.7
COc1cc2c(Nc3ccc(Br)cc3F)ncnc2cc1OCC1CCN(C)CC1    101
O=C1NC(=O)c2c1c1c3ccccc3[nH]c1c1[nH]c3cc(Br)ccc3c21    96.2
Nc1ncnc2c1cnn2-c1ccccc1    104
COc1cc2c(cc1OC)-c1[nH]nc(Nc3cccc(F)c3)c1C2    106
CCCCc1c(-c2ccc(O)cc2)[nH]c2nccnc12    93.9
